Test system: SARS-CoV-2 [hCoV-19/Egypt/NRC-03/2020]
Test: SARS-CoV-2 inhibitory assay (IC50 determination, crystal violet) in Vero E6 cells
Assay type: cell-based
Settings: Severe acute respiratory syndrome coronavirus 2, Vero C1008; Vero E6 cells, hCoV-19/Egypt/NRC-03/2020; read-out: IC50 (anti-SARS-CoV-2 activity)
Flag rule - IC50 less than 700 µg/mL flags 1.0; the remaining entries get 0.0.

INSERT INTO results (query_smiles, group_label) VALUES
  ('O=C(Nc1ncc([N+](=O)[O-])s1)[C@@H]1CCCN1C(=O)OCc1ccccc1', 0.0),
  ('O=C(CNC(=O)OCc1ccccc1)Nc1ncc([N+](=O)[O-])s1', 1.0),
  ('Cc1ccc(C(=O)Nc2ncc([N+](=O)[O-])s2)cc1', 0.0),
  ('O=C(N[C@@H](Cc1ccccc1)C(=O)Nc1ncc([N+](=O)[O-])s1)OCc1ccccc1', 0.0);

---

Target: SARS-CoV-2 Mpro (Severe acute respiratory syndrome coronavirus 2)
Assay: SARS-CoV-2 Mpro assay (3CL Protease Assay Kit)
Format: biochemical
Conditions: values used for multiple linear regression; read-out: IC50 (Table 4, regression model; SARS-CoV-2 Mpro values) (converted)
Measured IC50 by item
MEASURED_QUANTITY: IC50 (µM)

INSERT INTO assay_data (query_smiles, numeric_readout) VALUES
  ('O=C(Nc1ncc([N+](=O)[O-])s1)[C@@H]1CCCN1C(=O)OCc1ccccc1', 59.4),
  ('CC(C)[C@H](NC(=O)OCc1ccccc1)C(=O)Nc1ncc([N+](=O)[O-])s1', 235),
  ('O=C(N[C@@H](Cc1ccccc1)C(=O)Nc1ncc([N+](=O)[O-])s1)OCc1ccccc1', 38.9),
  ('C[C@H](NC(=O)OCc1ccccc1)C(=O)Nc1ncc([N+](=O)[O-])s1', 34),
  ('O=C(N[C@@H](Cc1c[nH]c2ccccc12)C(=O)Nc1ncc([N+](=O)[O-])s1)OCc1ccccc1', 110);

Data origin: paper PMC9344964
